Please provide measured pKd for the entries that follow.
- Tgt: T1, EsCas13d, nuclease-dead (Eubacterium siraeum, UniProt B0MS50, R295A;H300A;R849A;H854A)
- T1 sequence: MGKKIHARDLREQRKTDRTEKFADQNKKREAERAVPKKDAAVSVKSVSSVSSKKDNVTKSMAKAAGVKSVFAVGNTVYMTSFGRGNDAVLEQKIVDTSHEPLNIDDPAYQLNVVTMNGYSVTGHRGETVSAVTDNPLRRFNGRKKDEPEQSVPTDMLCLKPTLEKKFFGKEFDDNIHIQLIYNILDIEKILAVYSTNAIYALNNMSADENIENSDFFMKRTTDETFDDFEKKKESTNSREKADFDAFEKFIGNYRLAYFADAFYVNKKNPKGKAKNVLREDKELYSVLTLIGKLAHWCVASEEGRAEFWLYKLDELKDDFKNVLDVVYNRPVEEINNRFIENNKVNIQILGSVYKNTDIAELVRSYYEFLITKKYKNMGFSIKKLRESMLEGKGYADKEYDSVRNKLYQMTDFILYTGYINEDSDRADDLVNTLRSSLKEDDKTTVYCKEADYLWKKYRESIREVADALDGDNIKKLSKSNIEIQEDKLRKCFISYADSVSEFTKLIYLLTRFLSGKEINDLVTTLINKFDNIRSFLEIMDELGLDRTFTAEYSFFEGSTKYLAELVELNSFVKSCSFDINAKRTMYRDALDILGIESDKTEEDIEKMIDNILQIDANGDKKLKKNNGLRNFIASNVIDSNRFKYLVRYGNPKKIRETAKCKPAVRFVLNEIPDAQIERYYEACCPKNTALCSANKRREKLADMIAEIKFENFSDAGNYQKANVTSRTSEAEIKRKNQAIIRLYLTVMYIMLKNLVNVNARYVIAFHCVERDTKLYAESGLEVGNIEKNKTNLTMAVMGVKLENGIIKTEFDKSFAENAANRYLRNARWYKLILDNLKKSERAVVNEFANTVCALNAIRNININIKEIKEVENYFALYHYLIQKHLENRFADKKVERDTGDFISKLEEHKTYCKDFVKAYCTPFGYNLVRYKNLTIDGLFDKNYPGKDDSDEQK
- Assay Method Text: crRNA (strand 1, pre-loaded); Mg2+; 40 mM Tris-HCl pH 7.5, 150 mM NaCl, 6 mM MgCl2, 1 mM DTT, 0.1% Tween-20, 0.2 mg/ml BSA; 25 C; 10 min per concentration, then washed
- Conditions Used: tags: His6-TwinStrep-SUMO cleaved; N-terminal SNAP kept (SNAP-Surface 488); label: 3' end held by stalled T7 RNA polymerase
// pKd is dimensionless: -log10 of concentration (M)

Prompt line: Please give measured pKd of the following entry: target 1 insA 3' of 17,insU 3' of 15 (mixed) RNA 1: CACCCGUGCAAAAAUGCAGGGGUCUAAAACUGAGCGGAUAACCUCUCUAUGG RNA 2: GGGAAUGGAUCCACAUCUACGAAUUCGUACCAUAGAAGUAGGUUAUCCGCUCACCGAGAUCGGAAGAGCACACGU
Response line: 7.92

Prompt line: Please give measured pKd of the following entry: target 1 MT 5'PFS GUG 3'PFS CGG (mixed) RNA 1: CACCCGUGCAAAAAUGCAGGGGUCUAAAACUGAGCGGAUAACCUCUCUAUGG RNA 2: GGGAAUGGAUCCACAUCUACGAAUUCGUGCCAUAGAGAGGUUAUCCGCUCACGGAGAUCGGAAGAGCACACGU
Response line: 7.63

Prompt line: Please give measured pKd of the following entry: target 1 MT 5'PFS CCG 3'PFS AGU (mixed) RNA 1: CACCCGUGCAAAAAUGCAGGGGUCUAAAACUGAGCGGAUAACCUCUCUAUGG RNA 2: GGGAAUGGAUCCACAUCUACGAAUUCCCGCCAUAGAGAGGUUAUCCGCUCAAGUAGAUCGGAAGAGCACACGU
Response line: 8.00

Prompt line: Please give measured pKd of the following entry: target 1 insU 3' of 15,insA 3' of 6 (mixed) RNA 1: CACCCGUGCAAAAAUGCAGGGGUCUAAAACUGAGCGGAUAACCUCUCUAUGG RNA 2: GGGAAUGGAUCCACAUCUACGAAUUCGUACCAUAGAGUAGGUUAUCCAGCUCACCGAGAUCGGAAGAGCACACGU
Response line: 7.67
